# System: HEK293T cell line
# methodSummary: MTT cytotoxicity assay, HEK293T
# Format: cell-based, human
# studyConditions: 65-h treatment, Cmax 100 µM, read-out: IC50abs
# Experimental: Some of the obtained spiro-derivatives were tested for cytotoxicity using the standard MTT assay. Cytotoxicity was evaluated using the cell lines of various etiologies: breast cancer MCF7, human lung carcinoma A549, non-cancer human embryonic kidney cell line HEK293T, and non-cancer lung fibroblast VA13 cell line. […]

compound | valueQualifier | IC50 [µM]
O=C1NC2(CC3C=CC2C3)C(=O)N1c1ccccc1 (centres unmarked) [Compound 28b] | > | 100
O=C1NC2(C(=O)N1c1ccccc1)C1C=CC(C1)C2Br (centres unmarked) [Compound 40a] | = | 56.4
O=C1N(c2ccccc2F)C(=S)NC12CC1C=CC2C1 (centres unmarked) [Compound 35b] | = | 87.4
CC1=C(C)CC2(CC1)NC(=S)N(c1ccc(Cl)cc1)C2=O (centres unmarked) | = | 4.4

* * *

# Test system: MCF7 cell line
# methodSummary: MTT cytotoxicity assay, MCF7
# Type: cell-based, human
# studyConditions: Homo sapiens; MCF7, 65-h treatment, MTT; Cmax 100 µM; read-out: IC50abs
# IC50 per record follows
valueKind: IC50

molecule | value
Cc1cccc(N2C(=O)N[C@@]3(C[C@@H]4C=C[C@H]3C4)C2=O)c1 | 86.4 µM
Cc1cccc(C)c1N1C(=O)C2(CC3C=CC2CC3)NC1=S (centres unmarked) [Compound 51a] | > 100 µM
O=C1N[C@@]2(C[C@@H]3C=C[C@H]2C3)C(=O)N1c1ccccc1Cl | > 100 µM
O=C1N[C@@]2(C[C@@H]3C=C[C@H]2C3)C(=O)N1c1ccccc1 [Compound 28a] | > 100 µM
CC1=C(C)CC2(CC1)NC(=S)N(c1ccc(F)c(Cl)c1)C2=O (centres unmarked) | 11.1 µM
CSC1=NC2(CC3C=CC2C3)C(=O)N1c1ccccc1 (centres unmarked) | > 100 µM
O=C1N(c2ccccc2)C(=S)NC12CC1C=CC2C1 (centres unmarked) [Compound 34a] | > 100 µM
COc1cccc(N2C(=O)C3(CCC(C)=C(C)C3)NC2=S)c1 (centres unmarked) | 50.6 µM

* * *

# System: HEK293T cell line
# methodSummary: MTT cytotoxicity assay, HEK293T
# Format: cell-based, human
# studyConditions: 65-h treatment, Cmax 100 µM, read-out: IC50abs
Below is a list of entries, each paired with its recorded IC50 value.
valueKind: IC50

compound | value
CC1=C(C)CC2(CC1)NC(=S)N(c1ccccc1F)C2=O (racemic) [Compound 54] | 29.6 µM
Cc1cccc(N2C(=O)C3(CC4C=CC3C4)NC2=S)c1 (stereo not shown) [Compound 37a] | > 100 µM
CC1=C(C)CC2(CC1)NC(=S)N(c1c(C)cccc1C)C2=O (racemic) [Compound 61] | ~4 µM
CC1=C(C)CC2(CC1)NC(=S)N(c1ccc(F)cc1)C2=O (racemic) [Compound 58] | 13.7 µM
CC1=C(C)CC2(CC1)NC(=S)N(c1cccc(C)c1)C2=O (racemic) [Compound 56] | 22 µM
COc1ccc(N2C(=O)C3(CCC(C)=C(C)C3)NC2=S)cc1 (racemic) [Compound 60] | 10.2 µM
O=C1NC2(C(=O)N1c1ccccc1)C1C=CC(C1)C2I (stereo not shown) [Compound 41a] | 69.1 µM
